Test system: Aβ42
Assay: Screening for γ-secretase-modulating activity, Method 2: Aβ42 Alphalisa on SKNBE2 cell supernatant
Type: cell-based
Settings: Homo sapiens, Method 2, Table 3c, SKNBE2 cells carrying APP 695 wild type, overnight incubation
pIC50: −log10 of the molar value.
VALUE_KIND: pIC50

The examples below pair each entry with its known result.
{"columns": ["RECORD_SMILES", "NUMBER"],
 "data": [
  ["COc1cc(Nc2cc(C(C)C)nc3c2nc(-c2ccc(F)cc2)n3C)ccc1-n1cnc(C)n1", 7.70],
  ["COc1cc(Nc2cccc3c2nc(-c2ccc(F)cc2)n3C)ccc1-n1cnc(C)c1", 7.80]
]}

a. COc1cc(-c2nc3c(Nc4ccc(-n5cnc(C)c5)c(OC)n4)cccc3n2C)ccc1F
b. COc1nc(Nc2cccc3c2nc(-c2cc(C(F)(F)F)ccc2F)n3C)ccc1-n1cnc(C)c1
Prompt: Quick one: lower pIC50, a or b ? Which one? Tell me its label.
Response: b
(b: 7.44, a: 7.89)

* * *

Test system: Aβ42
Assay: Screening for γ-secretase-modulating activity, Method 2: Aβ42 Alphalisa on SKNBE2 cell supernatant
Format: cell-based
Conditions: Method 2, Table 3c, SKNBE2 cells carrying APP 695 wild type, overnight incubation
pIC50: −log10 of the molar value.
VALUE_KIND: pIC50

The examples below pair each entry with its known result.
{"columns": ["RECORD_SMILES", "pIC50"],
 "data": [
  ["COc1cc(Nc2ccc(-n3cnc(C)c3)c(OC)n2)c2nc(-c3ccc(F)cc3)n(C)c2c1", 8.30],
  ["Cc1cn(-c2ccc(Nc3nc(C)cc4c3nc(-c3ccc(F)c(Br)c3)n4C)cc2F)cn1", 8.10],
  ["Cc1cn(-c2ccc(Nc3nc(C)cc4c3nc(-c3ccccc3Cl)n4C)cc2F)cn1", 7.46],
  ["COc1cc(Nc2nccc3c2nc(-c2ccccc2C(F)(F)F)n3C)ccc1-n1cnc(C)n1", 6.89],
  ["COc1ccc(-c2nc3c(Nc4ccc(-n5cnc(C)c5)c(OC)n4)cccc3n2C)c(C)c1", 7.66]
]}

I. COc1nc(Nc2nc(C)cc3c2nc(-c2ccccc2Cl)n3C)ccc1-n1cnc(C)c1
II. Cc1ncn(-c2ccc(Nc3cc(C(F)(F)F)cc4c3nc(-c3ccc(F)cc3)n4C)cc2)n1
Prompt: Quick one: lower pIC50, I or II ? Which one? Tell me its label.
Response: II

* * *

Test system: Aβtotal
Test: Screening for γ-secretase-modulating activity, Method 2: Aβtotal Alphalisa on SKNBE2 cell supernatant
Format: cell-based
Details: Method 2, Table 3c, SKNBE2 cells carrying APP 695 wild type, overnight incubation
pIC50: −log10 of the molar value.
Measured pIC50, listed per entry.

The examples below pair each entry with its known result.
{"columns": ["RECORD_SMILES", "STUDY_TARGET", "pIC50"],
 "data": [
  ["COc1ccc(F)c(-c2nc3c(Nc4ccc(-n5cnc(C)c5)c(OC)n4)cccc3n2C)c1", "Aβtotal", "< 5.00"],
  ["CCOc1cc(C)c(-c2nc3c(Nc4ccc(-n5cnc(C)n5)c(OC)c4)cccc3o2)cc1C(C)C", "Aβtotal", "< 5.52"],
  ["COc1cc(Nc2cccc3c2nc(-c2cccc(Cl)c2)n3C(C)C)ccc1-n1cnc(C)n1", "Aβtotal", "< 5.00"]
]}

Recorded result, Cc1cn(-c2ccc(Nc3nc(C)cc4c3nc(-c3ccc(F)c(Br)c3)n4C)cc2F)cn1 , pIC50: < 5.00

Recorded result, Cc1ncn(-c2ccc(Nc3cccc4c3nc(-c3ccc(F)cc3)n4C(C)C)nc2)n1 , pIC50: < 5.00
